System name: Potassium channel subfamily K member 2 (Homo sapiens) (UniProt O95069)
Sequence (whole entry): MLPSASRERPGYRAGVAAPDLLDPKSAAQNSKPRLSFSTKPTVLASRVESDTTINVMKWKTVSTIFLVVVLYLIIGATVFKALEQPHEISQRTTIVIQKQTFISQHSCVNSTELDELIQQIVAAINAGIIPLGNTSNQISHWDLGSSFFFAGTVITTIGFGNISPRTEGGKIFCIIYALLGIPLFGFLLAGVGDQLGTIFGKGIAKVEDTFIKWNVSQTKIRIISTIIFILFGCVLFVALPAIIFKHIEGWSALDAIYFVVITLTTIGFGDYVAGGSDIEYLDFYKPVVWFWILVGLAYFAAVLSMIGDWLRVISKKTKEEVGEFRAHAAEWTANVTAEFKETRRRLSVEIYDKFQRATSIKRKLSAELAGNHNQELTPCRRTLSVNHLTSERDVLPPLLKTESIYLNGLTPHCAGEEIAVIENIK
Assay text: Activation of human TREK1 at 30 uM by thallium flux mobilization assay relative to control
Test context: filed as activator
Measurement type: Activity (%)
Numbers only, in %.

O=C(Nc1sccc1C(=O)O)c1ccc(SC(F)(F)F)cc1 | 58
O=C(Nc1ccc(OC(F)(F)F)cc1C(=O)O)c1ccc(SC(F)(F)F)cc1 | 57

Query string: Please look up its Activity: `O=C(Nc1cc(Br)ccc1C(=O)O)c1ccc(SC(F)(F)F)cc1`
Result string: 76
